Exercise: state measured ELISA Absorbance (405 nm-570 nm) for each of the binders provided.
Biological target: T1, DCC
T1 construct: coated protein in the ELISA; also called DCC-His (R&D Systems)
T1 chain: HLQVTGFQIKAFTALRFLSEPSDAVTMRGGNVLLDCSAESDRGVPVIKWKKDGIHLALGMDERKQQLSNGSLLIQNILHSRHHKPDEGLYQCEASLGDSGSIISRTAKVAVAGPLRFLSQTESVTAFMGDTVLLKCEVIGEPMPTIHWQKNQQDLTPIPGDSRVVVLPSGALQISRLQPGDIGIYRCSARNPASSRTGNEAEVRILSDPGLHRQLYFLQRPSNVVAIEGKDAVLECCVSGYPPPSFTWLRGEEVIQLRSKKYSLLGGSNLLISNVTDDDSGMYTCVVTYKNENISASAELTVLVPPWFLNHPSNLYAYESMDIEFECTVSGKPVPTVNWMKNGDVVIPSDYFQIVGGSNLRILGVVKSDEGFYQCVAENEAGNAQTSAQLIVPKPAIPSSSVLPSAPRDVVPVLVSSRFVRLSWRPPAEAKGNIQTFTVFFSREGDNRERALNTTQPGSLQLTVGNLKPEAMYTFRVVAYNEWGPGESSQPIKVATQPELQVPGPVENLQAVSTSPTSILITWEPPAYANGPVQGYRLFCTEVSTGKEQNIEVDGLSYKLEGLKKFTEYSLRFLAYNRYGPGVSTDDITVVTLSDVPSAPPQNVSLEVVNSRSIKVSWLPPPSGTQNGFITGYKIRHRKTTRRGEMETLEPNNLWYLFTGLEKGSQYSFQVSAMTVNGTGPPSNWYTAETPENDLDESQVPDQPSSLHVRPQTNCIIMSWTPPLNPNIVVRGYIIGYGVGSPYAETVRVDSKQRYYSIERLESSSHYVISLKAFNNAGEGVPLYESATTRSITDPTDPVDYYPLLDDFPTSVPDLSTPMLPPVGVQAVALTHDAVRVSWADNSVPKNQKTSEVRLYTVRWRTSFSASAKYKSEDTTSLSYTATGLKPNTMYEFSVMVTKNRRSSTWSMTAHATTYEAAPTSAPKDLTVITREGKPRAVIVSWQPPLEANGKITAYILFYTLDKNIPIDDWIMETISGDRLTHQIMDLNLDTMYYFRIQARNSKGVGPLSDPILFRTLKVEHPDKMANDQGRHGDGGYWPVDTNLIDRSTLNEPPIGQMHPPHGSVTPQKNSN
Test: ELISA on coated DCC-His, 150 ng IgG1; None 0.095
Write the number on its own, no unit after it.

## Task Need ELISA Absorbance (405 nm-570 nm), item HW-113 chimeric rabbit-human IgG1 LA/LA/PG (antibody, V domains shown, Fc-silenced (L234A/L235A/P329G) IgG1, lambda; Alexa Fluor 647-labeled in single-step flow cytometry) VH: QKQLVESGGGLVQPGGSLTLTCTVSGFSLNKYYMGWFRQAPGKGLEWIGVISRSGDTYYSSWAKGRFTISKASTTVDLRITSPTTEDTATYFCARDASSPGFHGDRLDLWGQGTLVTVSS VL: SFVLTQPASVQVNLGQTVSLTCTADTLSRSYASWYQQKPGQAPVLLIYRDTSRPSGVPDRFSGSSSGNTATLTISGAQAGDEADYYCATSDGIGSNYLWVFGGGTQLTVTG
## Result 0.072

## Task Return reported ELISA Absorbance (405 nm-570 nm); argument: HW-56 chimeric rabbit-human IgG1 LA/LA/PG (antibody, V domains shown, Fc-silenced (L234A/L235A/P329G) IgG1, kappa; Alexa Fluor 647-labeled in single-step flow cytometry; Cluster C-45) VH: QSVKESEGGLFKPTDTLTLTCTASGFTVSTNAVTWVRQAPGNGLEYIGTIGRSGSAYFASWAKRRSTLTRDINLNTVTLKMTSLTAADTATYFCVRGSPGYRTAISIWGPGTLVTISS VL: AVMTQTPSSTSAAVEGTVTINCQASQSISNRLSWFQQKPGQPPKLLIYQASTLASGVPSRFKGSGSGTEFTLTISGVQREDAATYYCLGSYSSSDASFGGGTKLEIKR
## Result 0.088
